Biological target: T1, monomeric human TIGIT (Sino Biological 10917-H08H) (human, UniProt Q495A1 22-138, biotinylated in the MSD-SET assay)
T1 construct: Bought protein; also called Human TIGIT monomer; Human TIGIT-His; not shown: His tag
T1 sequence: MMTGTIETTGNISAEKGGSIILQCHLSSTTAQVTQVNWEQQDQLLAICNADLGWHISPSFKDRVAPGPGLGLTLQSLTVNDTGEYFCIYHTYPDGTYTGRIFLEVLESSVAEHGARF
Assay: MSD-SET solution equilibrium titration, biotinylated antigen at 50 pM
# Kd per record follows
State just the number; it will be interpreted in nM.

Solved cases below.
# BINDER, Kd, nM
measured = [
    ("Clone 25D (antibody, V domains shown) VH: QVQLVQSGAEVKKPGASVKVSCKASGYTFTSYPIGWVRQAPGQGLEWMGWISSYNGNTNYAQKLQGRVTMTTDTSTSTAYMELRSLRSDDTAVYYCARDLKSFWSGDVLGAFDIWGQGTMVTVSS VL: DIQMTQSPSSLSASVGDRVTITCRASQSISSYLNWYQQKPGKAPKLLIYAASSLQSGVPSRFSGSGSGTDFTLTISSLQPEDFATYYCQQSVPPRTFGGGTKVEIK", 0.027),
    ("Clone 16D (antibody, V domains shown) VH: QVQLVQSGAEVKKPGSSVKVSCKASGGTFSDYPISWVRQAPGQGLEWMGGIIPIVGGANYAQKFQGRVTITADESTSTAYMELSSLRSEDTAVYYCTRQSTWHKLFGTDVWGQGTTVTVSS VL: DIQMTQSPSSVSASVGDRVTITCRASQGISSWLAWYQQKPGKAPKLLIYAASSLQSGVPSRFSGSGSGTDFTLTISSLQPEDFATYYCQQGDSLPPTFGGGTKVEIK", 0.013),
    ("Clone 25E (antibody, V domains shown) VH: QVQLVQSGAEVKKPGASVKVSCKASGYTFTSYAIAWVRQAPGQGLEWMGWISAYNGNTNYAQKLQGRVTMTTDTSTSTAYMELRSLRSDDTAVYYCARSGSSFWSGDVLGAFDIWGQGTMVTVSS VL: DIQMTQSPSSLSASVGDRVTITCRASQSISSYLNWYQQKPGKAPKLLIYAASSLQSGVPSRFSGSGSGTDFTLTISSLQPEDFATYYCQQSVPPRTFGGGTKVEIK", 0.013),
    ("Clone 25B (antibody, V domains shown) VH: QVQLVQSGAEVKKPGASVKVSCKASGYTFTSYPIGWVRQAPGQGLEWMGWISSYNGNTNYAQKLQGRVTMTTDTSTSTAYMELRSLRSDDTAVYYCARDLSSFWSGDVLGAFDIWGQGTMVTVSS VL: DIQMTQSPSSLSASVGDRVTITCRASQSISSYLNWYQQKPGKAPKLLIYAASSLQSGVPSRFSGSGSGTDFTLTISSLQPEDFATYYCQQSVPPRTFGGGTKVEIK", 0.022),
    ("Clone 25C (antibody, V domains shown) VH: QVQLVQSGAEVKKPGASVKVSCKASGYTFTSYPIGWVRQAPGQGLEWMGWISSYNGNTNYAQKLQGRVTMTTDTSTSTAYMELRSLRSDDTAVYYCARGASSFWSGDVLGAFDIWGQGTMVTVSS VL: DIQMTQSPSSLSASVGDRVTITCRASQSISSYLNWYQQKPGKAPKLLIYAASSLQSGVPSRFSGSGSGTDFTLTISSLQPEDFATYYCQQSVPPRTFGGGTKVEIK", 0.0056),
]

Problem: Report Kd for Clone 16E (antibody, V domains shown) VH: QVQLVQSGAEVKKPGSSVKVSCKASGGTFSDYPISWVRQAPGQGLEWMGGIIPIVGGANYAQKFQGRVTITADESTSTAYMELSSLRSEDTAVYYCARQSTWHKVYGTDVWGQGTTVTVSS VL: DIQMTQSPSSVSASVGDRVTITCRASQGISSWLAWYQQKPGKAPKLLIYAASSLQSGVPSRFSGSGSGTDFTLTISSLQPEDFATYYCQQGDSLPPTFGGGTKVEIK
Solution: 0.011

Each recorded value in this set is attributed to patent US20230050440A1.
